# tested.system: delF508-CFTR (Homo sapiens, UniProt P13569, DEL508-508)
# Construct: functional activity of the CFTR channel (Chloride ion transport) in patient derived primary human bronchial epithelial cells
# method.summary: Measurement of delF508-CFTR functional activity in primary human bronchial epithelial cells (HBECs) using Multi-Transepithelial Clamp Circuit (MTECC-24) assay
# conditions: primary CF HBECs; test compound added 24h before assay, in the presence of potentiator; mean of at least two replicates; read-out: MTECC24 CFHBEC- EC50
measured.metric: EC50 (nM)
Give bare numbers, in nM.

The cases that follow already have their EC50 on record.
| compound | output.unit | EC50 |
| --- | --- | --- |
| Cc1c(F)cccc1-c1nc(NS(=O)(=O)c2cccc(N)n2)ccc1Cl [Example 12] | nM | 9.7 |
| CC(C)(C)OC(=O)N1CCN(c2cccc(S(=O)(=O)Nc3ccc(C(F)(F)F)c(-c4ccccc4C4CC4)n3)n2)CC1 [Example 147] | nM | 4.2 |

Go through the list and state EC50 for each entry.
1. Cc1c(F)cccc1-c1nc(NS(=O)(=O)c2cccc(N3CCN(C(C)(C)C)CC3)n2)ccc1C(F)(F)F [Example 142]
2. Cc1c(F)cccc1-c1nc(NS(=O)(=O)c2cccc(N3CCC[C@H](C(=O)O)C3)n2)ccc1C(F)(F)F [Example 360]
3. Cc1cccc(Cl)c1-c1nc(NS(=O)(=O)c2cccc(N)n2)ccc1Cl [Example 13]

Reply |
1: 5.2; 2: 47.4; 3: 24

Go through the list and state EC50 for each entry.
1. Cc1ccccc1-c1nc(NS(=O)(=O)c2cccc(N[C@@H]3COCC[C@@H]3O)n2)ccc1C(F)(F)F (racemic) [Example 280]
2. Cc1ccc(F)cc1-c1nc(NS(=O)(=O)c2cccc(N[C@@H]3CCOC[C@H]3O)n2)ccc1Cl [Example 273]

Reply |
[2.5, 6.4]

###

# tested.system: delF508-CFTR (Homo sapiens, UniProt P13569, DEL508-508)
# Construct: functional activity of the CFTR channel (Chloride ion transport) in patient derived primary human bronchial epithelial cells; host or cells: patient-derived primary human bronchial epithelial cells (delF508-CFTR)
# method.summary: Measurement of delF508-CFTR functional activity in primary human bronchial epithelial cells (HBECs) using Multi-Transepithelial Clamp Circuit (MTECC-24) assay
# Type: cell-based
# conditions: primary CF HBECs; test compound added 24h before assay plus potentiator; relative to reference combination (2 μM corrector + 0.5 μM potentiator)
Where a name gives a salt, the structure may show the parent alone.
Output criterion met for records whose MTECC24 CFHBEC- Amax % is lower than 70%, criterion not met for records at or above 70%.

Please review the entries below; each comes with its answer.
| compound | label.value |
| --- | --- |
| Cc1cccc(C)c1-c1nc(NS(=O)(=O)c2cccc(O[C@H]3CC[C@@H](C(=O)O)CC3)n2)ccc1Cl [Example 129] | criterion met |
| Cc1ccccc1-c1nc(NS(=O)(=O)c2cccc(N3CCC4(CC[C@@H]4N)CC3)n2)ccc1C(F)(F)F [Example 306] | criterion not met |
| Cc1ccccc1-c1nc(NS(=O)(=O)c2cccc(N3CCN(C(=O)OC(C)(C)C)[C@@H](CO)C3)n2)ccc1C(F)(F)F [Example 164] | criterion not met |
| Cc1ccc(F)cc1-c1nc(NS(=O)(=O)c2cccc(N3CCNCC3)n2)ccc1Cl [Example 193, hydrochloride] | criterion not met |
| Cc1ccc(F)cc1-c1nc(NS(=O)(=O)c2cccc(N[C@@H]3CCOC[C@@H]3O)n2)ccc1Cl [Example 272] | criterion met |
| Cc1ccccc1-c1nc(NS(=O)(=O)c2cccc(N3CCC[C@H](C(=O)O)C3)n2)ccc1C(F)(F)F [Example 333] | criterion met |
| Cc1ccccc1-c1nc(NS(=O)(=O)c2cccc(N3CCC[C@@H](N)C3)n2)ccc1C(F)(F)F [Example 102, Hydrochloride] | criterion met |
| Cc1ccccc1-c1nc(NS(=O)(=O)c2cccc(OC3CCC(C(=O)O)CC3)n2)ccc1C(F)(F)F (centres unmarked) [Example 342] | criterion not met |

Ask | # TODO verify MTECC24 CFHBEC- Amax % < 70% strictly for this compound: Nc1cccc(S(=O)(=O)Nc2ccc(Cl)c(-c3ccc(F)cc3Cl)n2)n1 [Example 56]
Reply | criterion met

Ask | # TODO verify MTECC24 CFHBEC- Amax % < 70% strictly for this compound: CCOC(=O)C1(C)CCN(c2cccc(S(=O)(=O)Nc3ccc(C(F)(F)F)c(-c4cc(F)ccc4C)n3)n2)CC1 [Example 251]
Reply | criterion met

Ask | # TODO verify MTECC24 CFHBEC- Amax % < 70% strictly for this compound: Cc1ccccc1-c1nc(NS(=O)(=O)c2cccc(N3CCN(C)C(=O)C3)n2)ccc1C(F)(F)F [Example 196]
Reply | criterion not met

Ask | # TODO verify MTECC24 CFHBEC- Amax % < 70% strictly for this compound: Cc1ccccc1-c1nc(NS(=O)(=O)c2cccc(N3CCN4C[C@@H](F)C[C@@H]4C3)n2)ccc1C(F)(F)F [Example 138]
Reply | criterion not met

Ask | # TODO verify MTECC24 CFHBEC- Amax % < 70% strictly for this compound: Cc1ccccc1-c1nc(NS(=O)(=O)c2cccc(N3CC[C@H](O)[C@H]3C)n2)ccc1C(F)(F)F [Example 314]
Reply | criterion not met

Ask | # TODO verify MTECC24 CFHBEC- Amax % < 70% strictly for this compound: Cc1c(F)cccc1-c1nc(NS(=O)(=O)c2cccc(N3CCN(C(C)(C)C)CC3)n2)ccc1Cl [Example 140]
Reply | criterion met

Ask | # TODO verify MTECC24 CFHBEC- Amax % < 70% strictly for this compound: Cc1ccccc1-c1nc(NS(=O)(=O)c2cccc(N[C@@H]3COCC[C@H]3O)n2)ccc1C(F)(F)F [Example 279]
Reply | criterion not met

Ask | # TODO verify MTECC24 CFHBEC- Amax % < 70% strictly for this compound: O=S(=O)(Nc1ccc(Cl)c(-c2ccccc2C(F)(F)F)n1)c1cccc(N[C@H]2COC[C@@H]2O)n1 [Example 125]
Reply | criterion met

Ask | # TODO verify MTECC24 CFHBEC- Amax % < 70% strictly for this compound: Cc1ccc(C(F)(F)F)cc1-c1nc(NS(=O)(=O)c2cccc(N3CC(O)C3)n2)ccc1Cl [Example 223]
Reply | criterion met

Ask | # TODO verify MTECC24 CFHBEC- Amax % < 70% strictly for this compound: Cc1ccc(F)cc1-c1nc(NS(=O)(=O)c2cccc(N3CCC(C)(C(=O)O)CC3)n2)ccc1Cl [Example 257]
Reply | criterion met

Ask | # TODO verify MTECC24 CFHBEC- Amax % < 70% strictly for this compound: Cc1ccccc1-c1nc(NS(=O)(=O)c2ccnc(N)c2)ccc1Cl [Example 57]
Reply | criterion not met

Ask | # TODO verify MTECC24 CFHBEC- Amax % < 70% strictly for this compound: CC1(O)CN(c2cccc(S(=O)(=O)Nc3ccc(Cl)c(-c4ccc(F)cc4Cl)n3)n2)C1 [Example 213]
Reply | criterion not met

Ask | # TODO verify MTECC24 CFHBEC- Amax % < 70% strictly for this compound: Cc1ccccc1-c1nc(NS(=O)(=O)c2cccc(N[C@@H]3CCOC[C@H]3O)n2)ccc1C(F)(F)F [Example 274]
Reply | criterion not met

Ask | # TODO verify MTECC24 CFHBEC- Amax % < 70% strictly for this compound: Cc1ccccc1-c1nc(NS(=O)(=O)c2cccc(N3CCNC4(CC4)C3)n2)ccc1C(F)(F)F [Example 302]
Reply | criterion not met

Ask | # TODO verify MTECC24 CFHBEC- Amax % < 70% strictly for this compound: Cc1c(F)cccc1-c1nc(NS(=O)(=O)c2cccc(N)n2)ccc1Cl [Example 12]
Reply | criterion not met

###

# tested.system: horseradish peroxidase (HRP) tagged delF508-CFTR (Homo sapiens, UniProt P13569, DEL508-508)
# Construct: expressed in transfected cells
# Sequence (P13569 with tags, fused parts or gaps DEL508-508): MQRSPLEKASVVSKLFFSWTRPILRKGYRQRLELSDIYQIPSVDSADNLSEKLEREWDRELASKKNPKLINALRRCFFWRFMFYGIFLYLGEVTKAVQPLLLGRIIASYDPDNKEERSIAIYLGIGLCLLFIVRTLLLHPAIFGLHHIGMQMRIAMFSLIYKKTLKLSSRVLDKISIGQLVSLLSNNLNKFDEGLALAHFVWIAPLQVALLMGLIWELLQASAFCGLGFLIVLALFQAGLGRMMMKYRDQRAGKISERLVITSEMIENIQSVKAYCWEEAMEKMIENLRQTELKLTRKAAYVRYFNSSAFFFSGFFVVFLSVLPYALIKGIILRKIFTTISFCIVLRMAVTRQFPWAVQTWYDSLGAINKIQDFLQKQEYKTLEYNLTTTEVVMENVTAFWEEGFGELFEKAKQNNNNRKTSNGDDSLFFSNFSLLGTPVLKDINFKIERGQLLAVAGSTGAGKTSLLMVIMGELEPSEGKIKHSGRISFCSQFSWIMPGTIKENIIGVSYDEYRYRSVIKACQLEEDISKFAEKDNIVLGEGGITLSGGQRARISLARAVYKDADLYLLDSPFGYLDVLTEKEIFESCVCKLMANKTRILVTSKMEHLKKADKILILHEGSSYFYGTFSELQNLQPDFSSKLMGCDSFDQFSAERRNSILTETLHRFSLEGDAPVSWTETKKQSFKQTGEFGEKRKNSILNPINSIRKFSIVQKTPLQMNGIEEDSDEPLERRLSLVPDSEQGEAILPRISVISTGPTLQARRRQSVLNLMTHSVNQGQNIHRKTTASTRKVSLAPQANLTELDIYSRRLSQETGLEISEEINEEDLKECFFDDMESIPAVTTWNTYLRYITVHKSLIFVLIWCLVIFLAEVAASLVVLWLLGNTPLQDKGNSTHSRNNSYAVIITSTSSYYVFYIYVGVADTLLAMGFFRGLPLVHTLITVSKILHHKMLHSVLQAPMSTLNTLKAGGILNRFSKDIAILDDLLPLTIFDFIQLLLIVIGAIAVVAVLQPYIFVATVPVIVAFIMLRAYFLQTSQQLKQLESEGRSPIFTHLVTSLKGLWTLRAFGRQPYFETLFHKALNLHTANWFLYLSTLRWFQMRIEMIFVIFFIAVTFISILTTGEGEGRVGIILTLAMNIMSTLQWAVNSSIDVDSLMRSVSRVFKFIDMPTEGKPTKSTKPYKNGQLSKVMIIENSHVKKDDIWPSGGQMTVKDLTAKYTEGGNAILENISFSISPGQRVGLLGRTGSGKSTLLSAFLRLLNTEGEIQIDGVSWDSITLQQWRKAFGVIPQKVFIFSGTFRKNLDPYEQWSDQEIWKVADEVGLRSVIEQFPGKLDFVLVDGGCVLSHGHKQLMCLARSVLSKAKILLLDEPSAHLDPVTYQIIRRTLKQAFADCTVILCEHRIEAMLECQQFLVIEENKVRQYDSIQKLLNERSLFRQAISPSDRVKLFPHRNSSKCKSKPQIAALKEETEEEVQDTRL
# method.summary: Measurement of delF508-CFTR-HRP surface expression in CFBE41o- cells
# Type: cell-based
# conditions: CFBE41o- cells; mean of at least two replicates; read-out: DelF508-CFTR-HRP EC50
# Procedure: Measurement of delF508-CFTR-HRP Surface Expression in CFBE41o-Cells This assay quantifies the cell surface expressions of the mutant CFTR channel using an extracellular HRP tag. […] The median activity for the lowest concentration of the compounds on each assay plate was calculated and this value was used to normalize the signal for each well on the respective plate. […] The median value was determined and used to calculate compound activities as described below. […]
measured.metric: EC50 (nM)
One number for each entry, in nM.

The cases that follow already have their EC50 on record.
| compound | EC50 / nM |
| --- | --- |
| Cc1ccccc1-c1cccc(NS(=O)(=O)c2cccc(N3CCC[C@@](C)(C(=O)O)C3)n2)n1 [Example 412] | 1890 |
| CC(C)c1ccccc1-c1nc(NS(=O)(=O)c2cccc(N[C@@H]3C[C@@]4(C(=O)O)CC[C@@H]3O4)n2)ccc1C(F)(F)F (racemic) [Example 403] | 2360 |
| CCc1ccccc1-c1nc(NS(=O)(=O)c2cccc(N3CCCC(C)(C(=O)O)C3)n2)ccc1Cl (stereo not shown) [Example 387] | 1630 |
| Cc1ccccc1-c1nc(NS(=O)(=O)c2cccc(N3CCC[C@@](C)(C(=O)O)C3)n2)ccc1C [Example 409] | 1670 |
| Cc1ccccc1-c1nc(NS(=O)(=O)c2cccc(N3CCCC4(CC4C(=O)O)C3)n2)ccc1C(F)(F)F (stereo not shown) [Example 441] | 2310 |

Go through the list and state EC50 for each entry.
1. CC1(C(=O)O)CCCN(c2cccc(S(=O)(=O)Nc3ccc(C(F)(F)F)c(-c4ccccc4CCO)n3)n2)C1 (stereo not shown) [Example 445]
2. Cc1ccccc1-c1nc(NS(=O)(=O)c2cccc(N3CCC4(CC4C(=O)O)C3)n2)ccc1C(F)(F)F (stereo not shown) [Example 419]

Reply |
1. 2660
2. 2390
